These data points were gathered from ChEMBL document CHEMBL1153939.

Target: Alpha-1D adrenergic receptor (Homo sapiens, UniProt P25100)
Sequence (P25100 whole entry): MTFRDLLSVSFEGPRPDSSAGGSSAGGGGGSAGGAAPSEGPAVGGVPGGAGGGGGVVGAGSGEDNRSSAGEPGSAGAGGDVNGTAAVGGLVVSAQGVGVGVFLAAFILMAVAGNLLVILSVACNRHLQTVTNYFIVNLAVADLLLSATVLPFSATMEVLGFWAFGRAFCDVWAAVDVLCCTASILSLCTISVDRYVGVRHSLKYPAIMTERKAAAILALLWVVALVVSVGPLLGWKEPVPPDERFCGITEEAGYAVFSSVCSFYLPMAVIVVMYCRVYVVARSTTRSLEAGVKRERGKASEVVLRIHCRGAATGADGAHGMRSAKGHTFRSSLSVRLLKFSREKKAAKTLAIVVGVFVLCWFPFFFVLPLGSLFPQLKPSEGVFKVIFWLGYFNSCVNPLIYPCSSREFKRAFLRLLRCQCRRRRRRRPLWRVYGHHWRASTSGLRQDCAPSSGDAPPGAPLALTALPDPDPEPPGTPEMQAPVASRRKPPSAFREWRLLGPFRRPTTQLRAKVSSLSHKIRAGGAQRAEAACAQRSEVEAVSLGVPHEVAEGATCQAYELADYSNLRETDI
Experiment: Displacement of [3H]prazosin form human recombinant Alpha-1D adrenergic receptor
METRIC_NAME: IC50

Ask: Could you share which IC50 value was measured for CCCN1CCC(COc2nc3scc(C)c3n3cccc23)CC1 ?
Reply: 0.204 µM

----------
Assay: Toxicity in ip dosed NMRI mouse
Type: organism-based
Settings: in vivo
METRIC_NAME: LD50 (mg/kg)
Give the value, in units of mg/kg, as a plain number.

Ask: Requested read-out: LD50. Entry: CCCN1CCC(COc2nc3scc(C)c3n3cccc23)CC1
Reply: 200

----------
Target: 5-hydroxytryptamine receptor 3A (Homo sapiens, UniProt P46098)
Sequence (P46098 whole entry): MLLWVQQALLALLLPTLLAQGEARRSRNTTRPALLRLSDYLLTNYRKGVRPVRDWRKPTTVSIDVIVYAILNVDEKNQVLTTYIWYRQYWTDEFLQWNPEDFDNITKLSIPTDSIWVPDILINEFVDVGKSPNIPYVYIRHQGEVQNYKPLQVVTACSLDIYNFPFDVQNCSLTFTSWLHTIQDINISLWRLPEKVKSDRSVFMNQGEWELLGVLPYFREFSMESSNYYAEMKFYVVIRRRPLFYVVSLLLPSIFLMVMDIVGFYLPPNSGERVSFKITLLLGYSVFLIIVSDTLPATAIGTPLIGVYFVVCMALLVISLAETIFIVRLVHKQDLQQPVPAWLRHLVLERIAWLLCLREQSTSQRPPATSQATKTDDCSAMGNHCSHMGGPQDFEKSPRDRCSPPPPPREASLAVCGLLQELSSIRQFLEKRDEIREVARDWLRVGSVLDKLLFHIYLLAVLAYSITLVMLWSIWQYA
Test: Displacement of [3H]granisetron form 5HT3 receptor in hybrid […] cells
Format: cell-based
METRIC_NAME: IC50 (nM)
Reply numerically in nM, unit not repeated.

Ask: May I ask what IC50 has been recorded for c1ccc(CN2CCN(c3nc4ccsc4n4cccc34)CC2)cc1 ?
Reply: 1.41
